Molecular target: T1, Human VEGF-A 165 (human, UniProt P15692 207-395)
T1 construct: Recombinant human VEGF165; also called huVEGF-A165; hVEGF165
T1 sequence (P15692 other isoform, or with tags, fused parts or gaps): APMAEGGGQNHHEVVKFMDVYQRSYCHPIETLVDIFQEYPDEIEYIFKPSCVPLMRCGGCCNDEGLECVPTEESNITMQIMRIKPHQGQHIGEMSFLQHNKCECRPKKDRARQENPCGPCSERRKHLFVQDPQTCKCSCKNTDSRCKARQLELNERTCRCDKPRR
Experiment: SPR (Biacore), antibody captured by anti-human Fc, hVEGF165 as analyte
Result type: pKd
One number for each entry, as −log10 of the molar value.

Some binders with recorded pKd:
pKd measured on chBED-4G10-C8 (antibody, human IgG1, kappa, L234A L235A, V domains shown) VH: QVQLQQSGTELVKPGSSVKISCKASGYTFTSNYMHWIRQQPGNGLEWIGWIYPGDGDTNYNHNFNGKATLTADKSSSTAYMQLSSLTSEDFAVYFCASSTRAIPGWFTYWGQGTLVTVSS VL: DTVLTQSPALAVSPGERVSISCWASESVSTLMHWYQQKLGQQPKLLIYGASNLESGVPARFRGSGSGTDFTLTIDPVEADDTATYFCQQSWSDPYTFGAGTKLELKR = 9.23

Form: binder = chBEW-6C2 (antibody, human IgG1, kappa, L234A L235A, V domains shown) VH: EVQLVESGGGLVQPGSSLKLSCAASGFTFSYYGMHWIRQAPKKGLEWMALIYYDSSKMYYADSVKGRFTISRDNSKNTLYLEMNSLRSEDTAMYYCAAGGTAPVYWGQGVMVTVSS VL: NIQLTQSPSLLSASVGDRVTLSCKGSQNIANYLAWYQQKLGEAPKLLIYNTDSLQTGIPSRFSGSGSGTDYTLTISSLQPEDVATYFCYQSNNGYTFGAGTKLELRR ; pKd = 11.06

# pKd (binder: chBEW-1B10 (antibody, human IgG1, kappa, L234A L235A, V domains shown, also called chBEW-1B10-B9-C3) VH: EVQLVESGGGLVQPGRSLKLSCAASGFSFSKYDMAWFRQTPTKGLEWVASITTSGVGTYYRDSVKGRFTVSRDNAKSTLYLQMDSLRSEDTATYYCARGYGAMDAWGQGTSVTVSS VL: DIQMTQSPASLSASLEEIVTITCKASQDIDDYLSWYQQKPGKSPQLVIYAATRLADGVPSRFSGSGSGTQYSLKISRLQVDDSGIYYCLQSSSTPWTFGGGTNLELKR ) is 11.03

pKd for chBEW-5C3 (antibody, human IgG1, kappa, L234A L235A, V domains shown, also called chBEW-5C3-E7) VH: QIQLVQSGPELKKPGESVKISCKASGYTFTNYGVYWVKQAPGQGLQYMGWINTETGKPTYADDFKGRFVFFLETSTNTAYLQINNLKNEDMATFFCARARQLDWFVYWGQGTLVTVSS VL: DTVLTQSPALTVSPGERVSISCRARESLTTSLCWFQQKPGQQPKLLIYGASKLESGVPARFSGSGSGTDFTLTIDPVEADDTATYFCQQSWYDPPTFGGGTKLELKR is 10.92

Moving on to the next binder.
According to the records, this binder chBEW-8E6 (antibody, human IgG1, kappa, L234A L235A, V domains shown, also called chBEW-8E6-E4) VH: QIQLVQSGPELKKPGESVKISCKASGYTFTDYAMHWVKQAPGKVLKWMGWINTFTGKPTYIDDFKGRFVFSLEASASTANLQISDLKNEDTATYFCARGNYYSGYWYFDFWGPGTMVTMSS VL: DIQMTQSPASLSASLGETISIECRASEDISSNLAWYQQKSGKSPQLLIFAANRLQDGVPSRFSGSGSGTQFSLKISGMQPEDEGDYFCLQGSKFYTFGAGTKLELKR displays pKd of 10.80
